Where these numbers come from: ChEMBL document CHEMBL1126908

Tested on: P388
Test: Cytotoxicity was measured on murine leukemia p388
Type: functional, cell-based
Details: Mus musculus
pIC50: −log10 of the molar value.
Documented pIC50 across a set of compounds
Experimental Readout: pIC50

- COc1cc2c(NCCN(C)C)nc3c4cc5c(cc4ccc3c2cc1OC)OCO5: 6.05
- COc1cc2c(ccc3c4cc(OC)c(OC)cc4c[n+](C)c23)cc1O.[Cl-]: 5.70

###

Test system: P388 leukemia cells (Mus musculus)
Experiment: Cytotoxicity was measured on cultured murine leukemia cells (P388)
Experimental Readout: IC50 (nM)

• CC[C@@]1(O)C(=O)OCc2c1cc1n(c2=O)Cc2cc3ccccc3nc2-1 = 15

###

Molecular target: UniProtKB Q02880
Assay: Inhibition of topoisomerase II
Conditions: Bos taurus
Documented MIC across a set of compounds
Experimental Readout: MIC (µM)

* COc1ccc2c(ccc3c4ccccc4c(NCCN(C)C)nc23)c1 | 10
* COc1ccc2c(c1)c(NCCN(C)C)nc1c3ccc(O)cc3ccc21 | 10
* CN(C)CCCNc1nc2c3ccc(O)cc3ccc2c2ccc(O)cc12 | 10
* COc1cc([C@@H]2c3cc4c(cc3[C@@H](O[C@@H]3O[C@@H]5CO[C@@H](C)O[C@H]5[C@H](O)[C@H]3O)[C@H]3COC(=O)[C@H]23)OCO4)cc(OC)c1O | 0.1
* CN(C)CCNc1nc2c3cc(O)ccc3ccc2c2ccccc12 | 10
* CN(C)CCNc1nc2c3ccc(O)cc3ccc2c2ccccc12 | 1
* COc1cc2c(NCCN(C)C)nc3c4cc5c(cc4ccc3c2cc1OC)OCO5 | 1
* CN(C)CCNc1nc2c3ccc(O)cc3ccc2c2ccc(O)cc12 | 3
* COc1ccc2c(ccc3c4ccc(OC)cc4c(NCCN(C)C)nc23)c1 | 10

###

Experiment: The ratio of the mean survival time of treated animals on the mean survival time of controls multiplied by 100.It is measured at dose of 10 mg/kg; T/C value
Type: functional
Class Condition met: Ratio at least 100. Class Condition not met: Ratio below 100.

* CN(C)CCNc1nc2c3ccc(O)cc3ccc2c2ccccc12 | Condition met
* CN(C)CCNc1nc2c3cc(O)ccc3ccc2c2ccccc12 | Condition not met
* CN(C)CCNc1nc2c3ccc(O)cc3ccc2c2ccc(O)cc12 | Condition met
* CN(C)CCCNc1nc2c3cc(O)ccc3ccc2c2ccccc12 | Condition not met

###

System: L1210
Assay: Cytotoxicity against murine lymphoblastic leukemia cells (L1210).
Assay type: functional, cell-based
Conditions: Mus musculus
Class membership depends on IC50 alone; the intervals are category 1 (below 2 µM), category 2 (2 µM to below 3 µM), category 3 (3 µM or more)

• COc1cc2ccc3c4cc(OC)c(OC)cc4c(NCCN(C)C)nc3c2cc1OC = category 3
• CN(C)CCNc1nc2c3ccccc3ccc2c2ccccc12 = category 3
• CN(C)CCCNc1nc2c3cc(O)ccc3ccc2c2ccccc12 = category 3
• COc1ccc2c(ccc3c4ccc(OC)cc4c(NCCCN(C)C)nc23)c1 = category 2
• COc1ccc2c(ccc3c4ccc(OC)cc4c(NCCN(C)C)nc23)c1 = category 1
• CN(C)CCCNc1nc2c3ccc(O)cc3ccc2c2ccc(O)cc12 = category 3
• COc1ccc2c(ccc3c4ccccc4c(NCCCN(C)C)nc23)c1 = category 3
• COc1ccc2ccc3c4ccccc4c(NCCCN(C)C)nc3c2c1 = category 2
• CN(C)CCNc1nc2c3cc(O)ccc3ccc2c2ccccc12 = category 1
• COc1cc2c(NCCN(C)C)nc3c4cc5c(cc4ccc3c2cc1OC)OCO5 = category 1
• CN(C)CCNc1nc2c3ccc(O)cc3ccc2c2ccccc12 = category 1
• CN(C)CCCNc1nc2c3ccc(O)cc3ccc2c2ccccc12 = category 2
• CN(C)CCNc1nc2c3ccc(O)cc3ccc2c2ccc(O)cc12 = category 1
• COc1ccc2ccc3c4ccccc4c(NCCN(C)C)nc3c2c1 = category 2

###

Molecular target: DNA topoisomerase 2-beta (Homo sapiens) (UniProt Q02880)
Sequence (Q02880 whole entry): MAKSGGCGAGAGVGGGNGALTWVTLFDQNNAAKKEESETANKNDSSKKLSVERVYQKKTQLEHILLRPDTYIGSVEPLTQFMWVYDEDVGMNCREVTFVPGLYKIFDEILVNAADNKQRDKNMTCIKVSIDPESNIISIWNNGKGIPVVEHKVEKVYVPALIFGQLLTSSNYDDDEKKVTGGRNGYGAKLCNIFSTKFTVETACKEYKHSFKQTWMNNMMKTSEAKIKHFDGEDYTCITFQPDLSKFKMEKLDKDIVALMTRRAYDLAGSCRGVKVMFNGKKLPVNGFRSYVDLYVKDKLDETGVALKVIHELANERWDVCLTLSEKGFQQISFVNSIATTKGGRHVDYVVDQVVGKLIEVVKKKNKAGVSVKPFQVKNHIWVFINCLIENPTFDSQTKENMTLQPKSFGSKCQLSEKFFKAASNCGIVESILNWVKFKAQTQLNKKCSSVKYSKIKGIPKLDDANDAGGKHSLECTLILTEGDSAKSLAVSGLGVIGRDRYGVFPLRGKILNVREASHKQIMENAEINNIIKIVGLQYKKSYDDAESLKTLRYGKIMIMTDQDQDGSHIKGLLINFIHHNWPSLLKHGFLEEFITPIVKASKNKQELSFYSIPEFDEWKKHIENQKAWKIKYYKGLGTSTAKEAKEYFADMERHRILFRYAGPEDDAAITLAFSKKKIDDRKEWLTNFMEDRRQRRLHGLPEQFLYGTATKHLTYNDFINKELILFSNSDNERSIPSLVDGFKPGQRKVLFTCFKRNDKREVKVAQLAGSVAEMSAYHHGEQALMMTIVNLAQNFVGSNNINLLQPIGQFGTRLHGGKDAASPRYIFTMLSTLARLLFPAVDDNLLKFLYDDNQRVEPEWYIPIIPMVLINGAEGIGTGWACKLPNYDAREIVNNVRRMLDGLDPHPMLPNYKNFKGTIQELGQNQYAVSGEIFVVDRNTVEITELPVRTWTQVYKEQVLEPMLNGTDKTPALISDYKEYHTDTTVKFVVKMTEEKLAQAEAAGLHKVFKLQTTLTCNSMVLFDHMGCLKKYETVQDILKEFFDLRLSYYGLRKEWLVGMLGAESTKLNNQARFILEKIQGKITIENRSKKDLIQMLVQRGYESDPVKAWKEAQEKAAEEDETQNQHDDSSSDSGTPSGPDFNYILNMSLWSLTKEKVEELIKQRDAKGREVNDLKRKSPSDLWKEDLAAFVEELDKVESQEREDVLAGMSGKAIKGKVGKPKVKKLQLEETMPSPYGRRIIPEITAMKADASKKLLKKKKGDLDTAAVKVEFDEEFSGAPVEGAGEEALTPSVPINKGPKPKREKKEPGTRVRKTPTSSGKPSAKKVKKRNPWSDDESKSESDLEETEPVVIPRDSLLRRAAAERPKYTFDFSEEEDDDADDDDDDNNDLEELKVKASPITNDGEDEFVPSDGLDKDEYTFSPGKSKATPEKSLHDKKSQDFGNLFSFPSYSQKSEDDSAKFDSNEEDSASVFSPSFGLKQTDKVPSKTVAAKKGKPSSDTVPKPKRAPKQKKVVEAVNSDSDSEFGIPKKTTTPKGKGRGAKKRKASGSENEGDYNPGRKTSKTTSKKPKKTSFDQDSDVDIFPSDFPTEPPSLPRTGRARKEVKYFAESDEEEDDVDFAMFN
Test: Inhibition of topoisomerase II
Settings: Bos taurus
Experimental Readout: MIC

* COc1ccc2c(ccc3c4ccc(OC)cc4c(NCCCN(C)C)nc23)c1 | > 10 µM
* CN(C)CCCNc1nc2c3ccc(O)cc3ccc2c2ccccc12 | > 10 µM
* CN(C)CCCNc1nc2c3cc(O)ccc3ccc2c2ccccc12 | > 10 µM
* COc1ccc2c(ccc3c4ccccc4c(NCCCN(C)C)nc23)c1 | > 10 µM
* COc1cc2ccc3c4cc(OC)c(OC)cc4c(NCCN(C)C)nc3c2cc1OC | > 10 µM
* CC[C@@]1(O)C(=O)OCc2c1cc1n(c2=O)Cc2cc3ccccc3nc2-1 | > 100 µM
